- Tested on: RPMI-8226 leukemia
- Protocol details: NCI tumour cell line growth inhibition, 48 h
Reported property: TGI

Cc1ccc(C(=O)N/N=C(\N=Nc2ccc([N+](=O)[O-])cc2)c2ccc(N(CCC#N)CCC#N)cc2C)cc1: > 100 µM
CC(=O)OC1CCn2c1nc1cc([N+](=O)[O-])c(C)cc12 (stereo not drawn): > 100 µM
S=C(NCc1ccccn1)N/N=C/c1ccccn1: < 0.01 µM
Cc1ccc(/C=c2\cc3oc(=O)c4cccc(c4-3)c2=O)cc1: > 100 µM
CC(C)c1ccc(O)c(Cc2cc(C(C)C)cc(Cc3cc(C(C)C)ccc3O)c2O)c1: 4.75 µM
O=c1c(I)c[nH]cc1I: > 100 µM
ClC1=NSSC1(Cl)Cl: 56 µM
CCOc1ccc(C2=NN(CC)C(=O)C(C3C(=O)N(c4ccccc4)N=C3C)C2)cc1 (stereo not drawn): > 100 µM

Qu. Look at this molecule and give its reported TGI. COc1ccc(OC)c2c(C(C)=O)cccc12
Ans. > 100 µM

Qu. Reported TGI for CCOP1(=O)CC(C)=C(Cl)C(OC)C1 (stereo not drawn) : what is it?
Ans. > 100 µM

Qu. # lookup: TGI of CC(C)(C)N/N=C(/Cc1nc2c3c(ccc2[nH]c1=O)C(=O)c1ccccc1C3=O)C(=O)NC1=C(Cl)C(=O)c2ccccc2C1=O
Ans. > 100 µM

Qu. Please give the measured TGI for this molecule: Cc1c(C#N)c2nnn(-c3cccc(Cl)c3)c(=O)n2c1-c1ccccc1
Ans. 2.61 µM

Qu. Can you share its TGI? I mean this molecule: O=C1/C(=C/c2ccc(Cl)cc2)CCC1CNc1ccc(Cl)cc1 (stereo not drawn)
Ans. 6.68 µM

Qu. What does the data say about its TGI? Entry: CC1(C)CC(O)CC(C)(C)N1O
Ans. > 100 µM

Qu. Need TGI of Nc1nc(SCc2ccccc2Cl)c2ncn(C3OC(CO)C(O)C3O)c2n1 (stereo not drawn) , thanks.
Ans. > 100 µM

Qu. Entry CCOC(=O)c1ccc(N(CCOS(C)(=O)=O)CCOS(C)(=O)=O)cc1 has what TGI?
Ans. > 100 µM

Qu. Entry CCCCNc1ncnc2c1cnn2-c1ccccc1 has what TGI?
Ans. > 28.3 µM

Qu. Requested read-out: TGI. Entry: CNC(=O)CCN1CCN(CC/C=C2\c3ccccc3Sc3ccc(Cl)cc32)CC1
Ans. 18.2 µM

Qu. Can you look up the measured TGI of CN(C(=O)Cc1ccccc1)n1cn[n+](CC(=O)OC(C)(C)C)c1 for me?
Ans. > 10 µM

Qu. Request the reported TGI associated with CCOC(=O)C1=C(O)CC(=O)N=C1N1CCCC1
Ans. > 100 µM

Qu. What does the data say about its TGI? Entry: C=CCC(N[C@@H](CO)c1ccccc1)c1ccc2ccccc2n1 (stereo partly drawn)
Ans. > 100 µM

Qu. Recorded TGI for N=C(N)c1ccc2oc3ccc(C(=N)N)cc3c(=O)c2c1 , please?
Ans. > 100 µM

Qu. I have this molecule here, COc1ccc2nc3ccccc3c(NCCNCCO)c2c1 , and I need its recorded TGI.
Ans. 2.73 µM

---

- Test system: SF-539 CNS
- Protocol details: NCI tumour cell line growth inhibition, 48 h; in the data active = GI50 below about 0.43 µM; inactive = the rest
Valid outcomes are listed here; reply with one: True = active, False = inactive

Use the examples below as a reference point.
CC1(C)N=C(N)N=C(N)N1c1ccc(CCCC(=O)Nc2ccc(S(=O)(=O)F)cc2)cc1: False
CCCCNc1ncnc2c1cnn2-c1ccccc1: False
Cc1cc(NC(=O)NCc2ccc(N3C(N)=NC(N)=NC3(C)C)cc2)ccc1S(=O)(=O)F: False
CC(=O)ON(OCc1ccc2ccccc2c1)C(C)=O: False
CNC(=O)CCN1CCN(CC/C=C2\c3ccccc3Sc3ccc(Cl)cc32)CC1: False
CCSC[C@@H]1C[C@](O)(c2ccccc2)[C@@H](c2ccccc2)O1: False
CC[C@H](C)[C@H](NC(=O)[C@H]1CCCCN1C)C(=O)N(C)[C@H](CCc1nc(C(=O)N[C@@H](Cc2ccccc2)C[C@H](C)C(=O)O)cs1)C(C)C: True
CN1CCCCC1CCN1c2ccccc2Sc2ccc(Br)cc21 (configuration not stated): False
Nc1nc(SCc2ccccc2CCl)c2[nH]cnc2n1: False
N[C@@H]1CCCN(c2c(Br)cnc3[nH]cc(NC(=O)C4CC4)c23)C1: True

Qu. State the result this test recorded for COc1cc(C2CC(c3ccccc3)=NN2C=O)ccc1Oc1ccnc2cc(Cl)ccc12 (configuration not stated) .
Ans. False

Qu. What classification did COc1cc(-c2nc(-c3ccccc3)c(-c3ccccc3)[nH]2)cc(OC)c1O end up with in this test?
Ans. False

Qu. Lab log entry: Nc1ncn([C@H]2CC(O)[C@@H](CO)S2)c(=O)n1 (some centres not stated) — outcome as called in the assay?
Ans. False

Qu. Look up the recorded call for O=C1C(Cl)=C(Nc2ccc(S(=O)(=O)c3ccc(NC4=C(Cl)C(=O)c5ccccc5C4=O)cc3)cc2)C(=O)c2ccccc21 in this test.
Ans. False

Qu. What classification did CCn1c(-c2nonc2N)nc2ccccc21 end up with in this test?
Ans. False

Qu. Hi, sorry to bother you, what did the test record for CCN(CC)c1ccc(/C=N/NC(=O)Cc2ccc(Nc3ccnc(C(F)(F)F)c3)cc2)c(O)c1 ?
Ans. False

Qu. Which result was noted for this molecule in the test: COc1cc(N=Nc2cc(Cc3ccc(N(C)C)cc3)c(N)cc2N(C)C)c2ncccc2c1
Ans. False
